# study-target: recombinant human KLK5 (Homo sapiens, UniProt Q9Y337)
# Sequence (Q9Y337 23-293): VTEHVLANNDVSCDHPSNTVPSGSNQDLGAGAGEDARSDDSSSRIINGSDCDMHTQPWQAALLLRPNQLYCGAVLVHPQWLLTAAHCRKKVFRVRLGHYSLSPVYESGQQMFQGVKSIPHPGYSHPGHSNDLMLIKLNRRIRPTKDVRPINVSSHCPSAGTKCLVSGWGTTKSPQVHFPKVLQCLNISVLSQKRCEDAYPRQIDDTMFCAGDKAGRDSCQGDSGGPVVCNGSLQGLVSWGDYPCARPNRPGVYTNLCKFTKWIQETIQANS
# assay: Kallikrein (KLK) 5 enzymatic assay (Boc-VPR-AMC fluorogenic substrate)
# test-parameters: recombinant human KLK5 0.1 μg/well, Boc-VPR-AMC 100 μM, pH 7.5, room temperature, 1% DMSO; tested a minimum of three times

- compound: "CCOC(=O)N1CC[C@H](n2nc(COc3cccc(C4CC4)c3CC(=O)O)c3cc(-c4ccc5ccnc(N)c5c4)ccc32)C1 [Compound 356e]"
  IC50: "< 1000 nM"
- compound: "CC(C)n1nc(COc2ccccc2CC(=O)O)c2cc(-c3ccc4c(N)n[nH]c4c3)ccc21 [Compound 67c]"
  IC50: "> 10000 nM"
- compound: "Nc1nccc2c(-c3ccc4c(c3)C(Oc3ccccc3CC(=O)O)CC43CCCC3)cccc12 (stereo not drawn) [Compound 354f]"
  IC50: "< 1000 nM"
- compound: "Nc1nccc2ccc(-c3ccc4nn(C5CC(N)C5)c(COc5ccccc5CC(=O)O)c4c3)cc12 (stereo not drawn) [Compound 138b]"
  IC50: "1000 to 10000 nM"
- compound: "Nc1nccc2c(-c3ccc4c(c3)c(COc3ccccc3CC(=O)O)nn4CC3CCOC3)cccc12 (stereo not drawn) [Compound 88h]"
  IC50: "< 1000 nM"
- compound: "COC(=O)N1CCC2(CC1)CC(Oc1ccccc1CC(=O)O)c1cc(-c3cccc4c(N)nccc34)ccc12 (stereo not drawn) [Compound 371b]"
  IC50: "< 1000 nM"
- compound: "NCc1cc(-c2cccc3c(N)nccc23)cc2c(COc3ccccc3CC(=O)O)n[nH]c12 [Compound 280a]"
  IC50: "1000 to 10000 nM"
- compound: "CC(C)n1nc(COc2ccccc2CC(=O)O)c2cc(-c3cccc(C(=N)N)c3O)ccc21 [Compound 262e]"
  IC50: "< 1000 nM"
- compound: "CC(C)CCN1CCC(n2nc(COc3ccccc3CC(=O)O)c3cc(-c4ccc5ccnc(N)c5c4)ccc32)C1 (stereo not drawn) [Compound 309c]"
  IC50: "< 1000 nM"
- compound: "Cc1ccc(CC(=O)O)c(OCc2nn(C3CCC3)c3ccc(-c4cccc5c(N)nccc45)cc23)c1 [Compound 163c]"
  IC50: "< 1000 nM"
- compound: "Nc1nccc2ccc(-c3ccc4c(c3)C(COc3ccccc3CC(=O)O)=CC43CCCC3)cc12 [Compound 401b]"
  IC50: "< 1000 nM"
- compound: "N#Cc1cccc(O[C@@H]2CCc3ccc(-c4ccc5ccnc(N)c5c4)cc32)c1CC(=O)O [Compound 432c]"
  IC50: "1000 to 10000 nM"
- compound: "Nc1nccc2c(-c3ccc4c(c3)c(COc3ccccc3CC(=O)O)nn4C3CN(CCO)C3)cccc12 [Compound 147c]"
  IC50: "< 1000 nM"
- compound: "Nc1nccc2c(-c3ccc4c(c3)c(COc3ccccc3CC(=O)O)nn4C3CCC(F)(F)C3)cccc12 (stereo not drawn) [Compound 265h]"
  IC50: "< 1000 nM"
- compound: "CCOC(=O)N1CCC2(CC1)CC(Oc1ccccc1CC(=O)O)c1cc(-c3cccc4c(N)nccc34)ccc12 (stereo not drawn) [Compound 372b]"
  IC50: "< 1000 nM"
